Test system: E. faecalis ATCC 29212
assay.text: microbe, parasite or virus in culture
Format: cell-based
assay.conditions: ATCC 29212
Bridge positions count the residues as written; N and C are the ends. Square brackets hold non-standard residues; d marks the D form. Peptide text beside a SMILES is read from it.
quantity.name: MIC (µM)

compound	system	unit	observed.measurement
CC[C@H](C)[C@H](NC(=O)[C@H](CCCNC(=N)N)NC(=O)[C@H]1CCC(=O)NCCCC[C@H](NC(=O)[C@H](Cc2ccccc2)NC(=O)[C@H](Cc2c[nH]c3ccccc23)NC(=O)[C@@H]2CCCN2C(=O)[C@@H](NC(=O)[C@@H](N)Cc2ccccc2)C(C)C)C(=O)N[C@@H](CCCNC(=N)N)C(=O)N[C@@H](Cc2ccccc2)C(=O)N[C@H](CC(C)C)C(=O)N1)C(=O)N[C@@H](CC(C)C)C(N)=O [Peptide 9, FVPWF[KRFle]RIL] (H-FVPWFKRF[dL][dE]RIL-NH2; lactam 6-10)	E. faecalis ATCC 29212	µM	12.5

Just for reference, paper PMC12703733 is where these values come from.
